- targetOrSystem: LsrK-N protein (HPr binding domain, residues 1-260) (Salmonella typhimurium, UniProt Q8ZKQ6)
- Sequence (Q8ZKQ6 1-260): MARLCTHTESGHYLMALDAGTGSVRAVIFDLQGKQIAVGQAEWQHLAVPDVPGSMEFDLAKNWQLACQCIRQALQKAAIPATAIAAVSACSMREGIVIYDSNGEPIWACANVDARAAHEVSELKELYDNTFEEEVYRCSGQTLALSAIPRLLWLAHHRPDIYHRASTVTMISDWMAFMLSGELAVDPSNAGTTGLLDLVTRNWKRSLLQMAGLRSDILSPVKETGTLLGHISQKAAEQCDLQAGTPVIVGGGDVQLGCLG
assayEndpoint: Kd (µM)
Answers are plain numbers, in µM.

Exam item: Give the measured Kd for `CCOc1cc(/C=N/NC(=N)N)ccc1OCc1ccc(Cl)cc1`
Marked response: 25.1

# credit: paper PMC10223898
